- target-entity: Fuc(a1-2)Gal(b1-4)Glc6S
- protocol-text: glycan array binding signal (z-score within array); higher = stronger binding
- condition-notes: glycan notation: IUPAC condensed, linker removed
This is one part of a sample in which the strongest signals are shown more often than they occur.
Listed binders paired with reported glycan array binding signal (z-score)
Could you keep your reply to the number by itself?

Guide cases for glycan array binding signal (z-score), answers given:
binder | glycan array binding signal (z-score)
Jacalin (Artocarpus integrifolia) (protein) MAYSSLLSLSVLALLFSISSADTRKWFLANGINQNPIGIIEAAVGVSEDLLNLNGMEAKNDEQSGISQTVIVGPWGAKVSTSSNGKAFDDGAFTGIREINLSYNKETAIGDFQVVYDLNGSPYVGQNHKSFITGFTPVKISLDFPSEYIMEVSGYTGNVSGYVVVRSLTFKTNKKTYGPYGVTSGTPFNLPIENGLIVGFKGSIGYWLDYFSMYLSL | -0.249
Thrombomodulin (Mus musculus) (protein) ALAKLQPTGSQCVEHECFALFQGPATFLDASQACQRLQGHLMTVRSSVAADVISLLLSQSSMDLGPWIGLQLPQGCDDPVHLGPLRGFQWVTGDNHTSYSRWARPNDQTAPLCGPLCVTVSTATEAAPGEPAWEEKPCETETQGFLCEFYFTASC | 0.107
XL-35 (Xenopus laevis) (protein) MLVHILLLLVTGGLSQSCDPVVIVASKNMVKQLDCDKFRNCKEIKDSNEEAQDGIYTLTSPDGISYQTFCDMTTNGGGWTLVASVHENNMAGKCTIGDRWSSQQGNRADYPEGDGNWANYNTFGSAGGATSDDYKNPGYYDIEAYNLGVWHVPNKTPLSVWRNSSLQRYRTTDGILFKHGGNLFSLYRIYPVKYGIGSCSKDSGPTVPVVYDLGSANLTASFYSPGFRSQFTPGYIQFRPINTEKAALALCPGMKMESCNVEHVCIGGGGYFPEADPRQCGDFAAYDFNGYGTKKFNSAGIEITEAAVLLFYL | 0.014
DBA (Dolichos biflorus) (protein) ANIQSFSFKNFNSPSFILQGDATVSSGKLQLTKVKENGFPLRFPSGRAFYSSPIQIYDKFTGAVASWATSFTVKISAPSKASFADGIAFALVPVGSEPRRNGGYLGVFDSDVYNNSAQTVAVEFDTLSNSGWDPSMKHIGIDVNSIKSIATVSWDLANGENAEILITYNAATSLLVVSLVHPSRRTSYILSERVDITNELPEYVGVGFSATTGLSEGYIETHDVLSWSFASRLPDDSTAEPLDLARYLVRNVL | -0.09
CML1 (Coprinopsis cinerea) (protein) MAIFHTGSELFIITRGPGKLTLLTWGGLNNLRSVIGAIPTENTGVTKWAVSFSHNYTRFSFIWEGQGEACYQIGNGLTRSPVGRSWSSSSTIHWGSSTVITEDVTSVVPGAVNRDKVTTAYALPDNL | 1.38

Query binder follows.
Prompt: What value of glycan array binding signal (z-score) has been recorded for this entry: CM2 (Cordyceps militaris) (protein) MEIAEQNVGKSCAIVNLIPPKEGSNIWTAKQVTIARNLPPNRGTGRHQIDWSFGPVKVTGYVDTTNWEIGVTVSIMGIDLGTVYGNLRDGVVLNVDLFLAKGQVRFYLKNGNEVWVHLSVEIRFDGKFEGDYKIITV
Response: -0.639
